Assay: soluble on expression in E. coli; label from the status in PepcDB or PDB records

>  <Biosequence>
MKIITCYKCVPDEQDIAINNADGTLDFSKADSKISQYDLNAIEAACQLKQQLGDAQVVAMSVGGKALTNAKGRKDVLSRGPDELIVVIDDQFEQALPQHTATALAAAAQKSGFDLLICGDGSSDLYAQQVGLLVGEALNIPAINGVSKILSLTDSTLTVERELEDEVETLSIPLPAVIAVSTDINTPQIPSMKAILGAAKKPVQVWSPADIGLNSVPAYSAQQVAAPKQRERQRVVIEGDGEEQIAAFVENLRKII

>  <soluble on expression in E. coli>
not soluble

$$$$
>  <Biosequence>
MGSSHHHHHHSSGLEVLFQGPLHMRTQGIKPRIREILSKELPEELVKLLPKRWVRIGDVLLLPLRPELEPYKHRIAEVYAEVLGVKTVLRKGHIHGETRKPDYELLYGSDTVTVHVENGIKYKLDVAKIMFSPANVKERVRMAKVAKPDELVVDMFAGIGHLSLPIAVYGKAKVIAIEKDPYTFKFLVENIHLNKVEDRMSAYNMDNRDFPGENIADRILMGYVVRTHEFIPKALSIAKDGAIIHYHNTVPEKLMPREPFETFKRITKEYGYDVEKLNELKIKRYAPGVWHVVLDLRVFKS

>  <soluble on expression in E. coli>
soluble

$$$$
>  <Biosequence>
RTVRQTPKQSERYVVVLSLDGFRPDYTDRARTPALDRMAQEGLSGSLQPCFPSLTFPNHYSMATGLYPDHHGIVANEFVDSLLGIFRISDRKAVETPGFWGGEPVWNTAARQGIRTGVYFWVGSETAVNGNRPWRWKKFSSTVPFRDRADSVIAWLGLPEKERPRLLMWYIEEPDMIGHSQTPESPLTLAMVERLDSVVGYFRKRLDSLPIAAQTDFIIVSDHGMATYENEKCVNLSH

>  <soluble on expression in E. coli>
not soluble

$$$$
>  <Biosequence>
MSVSRRDVLKFAAATPGVLGLGVVASSLRAAPASAGSLGTLLDYAAGVIPASQIRAAGAVGAIRYVSDRRPGGAWMLGKPIQLSEARDLSGNGLKIVSCYQYGKGSTADWLGGASAGVQHARRGSELHAAAGGPTSAPIYASIDDNPSYEQYKNQIVPYLRSWESVIGHQRTGVYANSKTIDWAVNDGLGSYFWQHNWGSPKGYTHPAAHLHQVEIDKRKVGGVGVDVNQILKPQFGQWA

>  <soluble on expression in E. coli>
not soluble

$$$$
>  <Biosequence>
MSSNNRKKLLLMGRSGSGKSSMRSIIFSNYSAFDTRRLGATIDVEHSHLRFLGNMTLNLWDCGGQDVFMENYFTKQKDHIFQMVQVLIHVFDVESTEVLKDIEIFAKALKQLRKYSPDAKIFVLLHKMDLVQLDKREELFQIMMKNLSETSSEFGFPNLIGFPTSIWDESLYKAWSQIVCSLIPNMSNHQSNLKKFKEIMNALEIILFERTTFLVICSSNGENSNENHDSSDNNNVLLDPKRFEKISNIMKNFKQSCTKLKSGFKTLILNNNIYVSELSSNMVCFIVLKDMNIPQELVLENIKKAKEFFQ

>  <soluble on expression in E. coli>
soluble

$$$$
>  <Biosequence>
MAHHHHHHMIEHLNLWLPWKHRKPMWPYPQKNAMPSVFPLEFTTLGEGVVTFSCLCLAAVLAVQEVLTPSHGFPTVLVAFPHKRGGVSSALLYSKVVEAFIQSLRSESALVEAVTVRHMARAALQALNTIINACFSEQYPLYTMAQLLLSEGKAEAKDATHDGGMLGAVDLVLSIDPLSCGGDILHSETQLVMPTPFAIRSVGRCTPGAARQQTNVKLPSALEVTDAALLQMPGAGESSTGRRLSACILERSQVLLTLLK

>  <soluble on expression in E. coli>
not soluble

$$$$
